# assayed_target: the molecule itself
# experiment_description: SEC + native gel or EMSA
quantity_kind: stoichiometry N
Give bare numbers.

Consider the protein shown here: TqsA K200L (natural protein, E. coli K-12, UniProt P0AFS5 1-344, looked up) MAKPIITLNGLKIVIMLGMLVIILCGIRFAAEIIVPFILALFIAVILNPLVQHMVRWRVPRVLAVSILMTIIVMAMVLLLAYLGSALNELTRTLPQYRNSIMTPLQALEPLLQRVGIDVSVDQLAHYIDPNAAMTLLTNLLTQLSNAMSSIFLLLLTVLFMLLEVPQLPGKFQQMMARPVEGMAAIQRAIDSVSHYLVLLTAISIITGLVAWAMLAALDVRFAFVWGLLAFALNYIPNIGSVLAAIPPIAQVLVFNGFYEALLVLAGYLLINLVFGNILEPRIMGRGLGLSTLVVFLSLIFWGWLLGPVGMLLSVPLTIIVKIALEQTAGGQSIAVLLSDLNKE What is its recorded stoichiometry N?
5
